Field: solubility. Provide a value for each of the compounds that follow.
- test protocol: Solubility studies
- Assay type: physicochemical
- settings: pH 7.1, aqueous buffer; read-out: Solubility (pH 7.1)
Answers are plain numbers, in µM.

Look over these answered cases.
[[record]]
compound = "COc1ccc(OCC(=O)N(Cc2cccs2)c2cc[nH]n2)cc1 [Compound 103]"
experimental_endpoint = "solubility"
test_value = 403

[[record]]
compound = "Cc1ccc(OCC(=O)N(Cc2cccs2)c2ccn[nH]2)cc1 [Comparative Compound 1, reference compound]"
experimental_endpoint = "solubility"
test_value = 171

[[record]]
compound = "Cc1cccc(OCC(=O)N(Cc2cccs2)c2cc[nH]n2)c1 [Compound 101]"
experimental_endpoint = "solubility"
test_value = 152


Note: attention shifts to another entry.
Q) Answer with the recorded solubility for the compound listed here: O=C(COc1ccc(F)cc1)N(Cc1cccs1)c1cc[nH]n1 [Compound 102]
A) 503
